test name: Pharmacokinetic study, 3 mg/kg IV, 10 mg/kg PO and 10 mg/kg PO QD*3, plasma, liver and bone
Format: in vivo, mouse
assay context: female, C57BL/6 J, mouse, liver, iv, 3 mg/kg, liver, IV, 24 h, individual animals; read-out: Liver 6641 IV concentration
metric name: concentration at 24 h (ng/g)
Give bare numbers, in ng/g.

(Q) What does the record list as concentration at 24 h for O=C1Nc2ccc(-c3cc(C(F)(F)F)cc(C(F)(F)F)c3)cc2C(=O)N2CCN(C(=O)COc3ccc(OC(F)(F)F)cc3I)C[C@@H]12 ?
(A) 28

----------
test name: Pharmacokinetic study, 3 mg/kg IV, 10 mg/kg PO and 10 mg/kg PO QD*3, plasma, liver and bone
Assay type: in vivo, mouse
assay context: female, C57BL/6 J, mouse, plasma, po, 10 mg/kg, PO, Time 48 h; individual values (1)-(3); N/A: Below detection level; read-out: Plasma concentration
metric name: concentration at 48 h (ng/mL)
Give bare numbers, in ng/mL.

(Q) Please look up its concentration at 48 h: O=C1Nc2ccc(-c3cc(C(F)(F)F)cc(C(F)(F)F)c3)cc2C(=O)N2CCN(C(=O)COc3ccc(OC(F)(F)F)cc3I)C[C@@H]12
(A) 1.39

----------
test name: Pharmacokinetic study, 3 mg/kg IV, 10 mg/kg PO and 10 mg/kg PO QD*3, plasma, liver and bone
Format: in vivo, mouse
assay context: female, C57BL/6 J, mouse, liver, iv, 3 mg/kg, liver, IV, 0.25 h, individual animals; read-out: Liver 6641 IV concentration
metric name: concentration at 0.25 h (ng/g)
Numbers only, in ng/g.

(Q) Quick check: concentration at 0.25 h of O=C1Nc2ccc(-c3cc(C(F)(F)F)cc(C(F)(F)F)c3)cc2C(=O)N2CCN(C(=O)COc3ccc(OC(F)(F)F)cc3I)C[C@@H]12 ?
(A) 17200

----------
test name: Pharmacokinetic study, single 30 mg/kg IP dose, plasma, liver and bone
Format: in vivo, mouse
assay context: female, C57BL/6J, mouse, plasma, ip, 30 mg/kg, IP, Time 1 h; individual values (1)-(3); read-out: Plasma concentration
metric name: concentration at 1 h (ng/mL)
Numbers only, in ng/mL.

(Q) concentration at 1 h lookup needed for O=C1Nc2ccc(-c3cc(C(F)(F)F)cc(C(F)(F)F)c3)cc2C(=O)N2CCN(C(=O)COc3ccc(OC(F)(F)F)cc3I)C[C@@H]12 , thanks.
(A) 627

----------
test name: Pharmacokinetic study, 3 mg/kg IV, 10 mg/kg PO and 10 mg/kg PO QD*3, plasma, liver and bone
Type: in vivo, mouse
assay context: female, C57BL/6 J, mouse, liver, po, 10 mg/kg, liver, PO, 0.25 h, individual animals; read-out: Liver 6641 PO concentration
metric name: concentration at 0.25 h (ng/g)
Answers are plain numbers, in ng/g.

(Q) Requested read-out: concentration at 0.25 h. Entry: O=C1Nc2ccc(-c3cc(C(F)(F)F)cc(C(F)(F)F)c3)cc2C(=O)N2CCN(C(=O)COc3ccc(OC(F)(F)F)cc3I)C[C@@H]12
(A) 321

----------
test name: Pharmacokinetic study, 3 mg/kg IV, 10 mg/kg PO and 10 mg/kg PO QD*3, plasma, liver and bone
Type: in vivo, mouse
assay context: female, C57BL/6 J, mouse, plasma, po, 10 mg/kg, PO (QD*3), Time 0.25 h; individual values (1)-(3); read-out: Plasma concentration
metric name: concentration at 0.25 h (ng/mL)
Numbers only, in ng/mL.

(Q) Which concentration at 0.25 h value is on record for O=C1Nc2ccc(-c3cc(C(F)(F)F)cc(C(F)(F)F)c3)cc2C(=O)N2CCN(C(=O)COc3ccc(OC(F)(F)F)cc3I)C[C@@H]12 ?
(A) 95.9

----------
test name: Pharmacokinetic study, 3 mg/kg IV, 10 mg/kg PO and 10 mg/kg PO QD*3, plasma, liver and bone
Assay type: in vivo, mouse
assay context: female, C57BL/6J, mouse, bone (long bones), iv, 3 mg/kg, bone, IV, 0.083 h, individual animals; read-out: Bone 6641 IV concentration
metric name: concentration at 0.083 h
Units required after the number.

(Q) Look up concentration at 0.083 h: O=C1Nc2ccc(-c3cc(C(F)(F)F)cc(C(F)(F)F)c3)cc2C(=O)N2CCN(C(=O)COc3ccc(OC(F)(F)F)cc3I)C[C@@H]12
(A) 1180 ng/g

----------
test name: Pharmacokinetic study, 3 mg/kg IV, 10 mg/kg PO and 10 mg/kg PO QD*3, plasma, liver and bone
Assay type: in vivo, mouse
assay context: female, C57BL/6 J, mouse, plasma, po, 10 mg/kg, PO (QD*3), Time 24 h; individual values (1)-(3); read-out: Plasma concentration
metric name: concentration at 24 h

(Q) I'd like to know its concentration at 24 h. The compound in question is O=C1Nc2ccc(-c3cc(C(F)(F)F)cc(C(F)(F)F)c3)cc2C(=O)N2CCN(C(=O)COc3ccc(OC(F)(F)F)cc3I)C[C@@H]12
(A) 5.56 ng/mL

----------
test name: Pharmacokinetic study, 3 mg/kg IV, 10 mg/kg PO and 10 mg/kg PO QD*3, plasma, liver and bone
Type: in vivo, mouse
assay context: female, C57BL/6 J, mouse, plasma, po, 10 mg/kg, PO, Time 0.083 h; individual values (1)-(3); N/A: Below detection level; read-out: Plasma concentration
metric name: concentration at 0.083 h
Remember to follow the number with its unit.

(Q) Quick one: concentration at 0.083 h for O=C1Nc2ccc(-c3cc(C(F)(F)F)cc(C(F)(F)F)c3)cc2C(=O)N2CCN(C(=O)COc3ccc(OC(F)(F)F)cc3I)C[C@@H]12 ?
(A) 1.64 ng/mL

----------
test name: Pharmacokinetic study, 3 mg/kg IV, 10 mg/kg PO and 10 mg/kg PO QD*3, plasma, liver and bone
Assay type: in vivo, mouse
assay context: female, C57BL/6J, mouse, bone (long bones), iv, 3 mg/kg, bone, IV, 0.25 h, individual animals; read-out: Bone 6641 IV concentration
metric name: concentration at 0.25 h (ng/g)
Give bare numbers, in ng/g.

(Q) Give the measured concentration at 0.25 h of O=C1Nc2ccc(-c3cc(C(F)(F)F)cc(C(F)(F)F)c3)cc2C(=O)N2CCN(C(=O)COc3ccc(OC(F)(F)F)cc3I)C[C@@H]12 .
(A) 1100

----------
test name: Pharmacokinetic study, 3 mg/kg IV, 10 mg/kg PO and 10 mg/kg PO QD*3, plasma, liver and bone
Type: in vivo, mouse
assay context: female, C57BL/6 J, mouse, plasma, po, 10 mg/kg, PO, Time 24 h; individual values (1)-(3); read-out: Plasma concentration
Method: The concentration of compound in plasma, liver, and long bones was detected using liquid chromatography tandem mass spectrometry (LC-MS/MS). […] IV administration, one 10 mg/kg PO administration and three 10 mg/kg PO administrations (QD*3). a Plasma, b liver and c bone profiles in female mice. The actual concentration (ng/g) is the detected value (ng/mL) multiplied by 4. […] Results are expressed as the mean ± SEM.
metric name: concentration at 24 h

(Q) For the compound O=C1Nc2ccc(-c3cc(C(F)(F)F)cc(C(F)(F)F)c3)cc2C(=O)N2CCN(C(=O)COc3ccc(OC(F)(F)F)cc3I)C[C@@H]12 [compound 6641] , what concentration at 24 h is on record?
(A) 4.25 ng/mL

----------
test name: Pharmacokinetic study, 3 mg/kg IV, 10 mg/kg PO and 10 mg/kg PO QD*3, plasma, liver and bone
Assay type: in vivo, mouse
assay context: female, C57BL/6 J, mouse, liver, po, 10 mg/kg, liver, PO (QD*3), 24 h, individual animals; read-out: Liver 6641 PO (QD*3) concentration
metric name: concentration at 24 h
Note: a bare number is incomplete; add the unit.

(Q) Sample O=C1Nc2ccc(-c3cc(C(F)(F)F)cc(C(F)(F)F)c3)cc2C(=O)N2CCN(C(=O)COc3ccc(OC(F)(F)F)cc3I)C[C@@H]12 — what was its concentration at 24 h?
(A) 32.3 ng/g

----------
test name: Pharmacokinetic study, 3 mg/kg IV, 10 mg/kg PO and 10 mg/kg PO QD*3, plasma, liver and bone
Format: in vivo, mouse
assay context: female, C57BL/6 J, mouse, liver, po, 10 mg/kg, liver, PO, 24 h, individual animals; read-out: Liver 6641 PO concentration
metric name: concentration at 24 h
In your response, the unit should come after the numeric value.

(Q) Consider the compound O=C1Nc2ccc(-c3cc(C(F)(F)F)cc(C(F)(F)F)c3)cc2C(=O)N2CCN(C(=O)COc3ccc(OC(F)(F)F)cc3I)C[C@@H]12 and give its measured concentration at 24 h.
(A) 28.5 ng/g

----------
test name: Pharmacokinetic study, 3 mg/kg IV, 10 mg/kg PO and 10 mg/kg PO QD*3, plasma, liver and bone
Format: in vivo, mouse
assay context: female, C57BL/6 J, mouse, plasma, po, 10 mg/kg, PO (QD*3), Time 0.083 h; individual values (1)-(3); read-out: Plasma concentration
metric name: concentration at 0.083 h (ng/mL)
Give bare numbers, in ng/mL.

(Q) Give the measured concentration at 0.083 h of O=C1Nc2ccc(-c3cc(C(F)(F)F)cc(C(F)(F)F)c3)cc2C(=O)N2CCN(C(=O)COc3ccc(OC(F)(F)F)cc3I)C[C@@H]12 [compound 6641] .
(A) 8.04
